FYI, the data here is from ChEMBL document CHEMBL1147905.

- experimental system: Thyroid hormone receptor beta (Homo sapiens)
- Sequence (whole entry): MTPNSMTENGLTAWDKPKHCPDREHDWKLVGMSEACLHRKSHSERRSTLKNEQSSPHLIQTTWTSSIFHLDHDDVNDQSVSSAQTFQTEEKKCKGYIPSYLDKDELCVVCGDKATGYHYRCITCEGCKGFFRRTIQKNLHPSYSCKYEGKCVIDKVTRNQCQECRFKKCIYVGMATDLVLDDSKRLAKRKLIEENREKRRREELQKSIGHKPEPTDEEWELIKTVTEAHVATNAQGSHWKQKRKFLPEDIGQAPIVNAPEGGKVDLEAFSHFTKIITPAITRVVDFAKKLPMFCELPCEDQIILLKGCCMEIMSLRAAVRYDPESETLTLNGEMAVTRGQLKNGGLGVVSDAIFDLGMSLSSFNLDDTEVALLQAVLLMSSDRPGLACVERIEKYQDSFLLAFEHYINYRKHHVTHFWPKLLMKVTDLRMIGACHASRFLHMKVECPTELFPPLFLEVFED
- protocol: Antagonist activity at human thyroid hormone receptor beta-1 expressed in COS1 cells by transactivation assay after 40 hrs
- Type: functional, cell-based
- study conditions: COS-1
The source made the active and inactive calls. The rule behind the calls is not given here.
Outcome field: choose from active, inactive

Entry Cc1cc(CC2SC(=O)NC2=O)cc(C)c1N(CC(C)C)c1ccc(O)c(C(C)C)c1 (configuration not stated) : call = ? active

Entry CCCCCCN(c1ccc(O)c(C(C)C)c1)c1c(C)cc(CC2SC(=O)NC2=O)cc1C (configuration not stated) : call = ? active

Entry Cc1cc(CC2SC(=O)NC2=O)cc(C)c1N(Cc1ccccc1)c1ccc(O)c(C(C)C)c1 (configuration not stated) : call = ? active

New cases:
Entry Cc1cc(CC2SC(=O)NC2=O)cc(C)c1N(CC1CCCCC1)c1ccc(O)c(C(C)C)c1 (configuration not stated) : call = ? active

Entry Cc1cc(CC2SC(=O)NC2=O)cc(C)c1N(C)c1ccc(O)c(C(C)C)c1 (configuration not stated) : call = ? inactive

Entry CC(C)=CCN(c1ccc(O)c(C(C)C)c1)c1c(C)cc(CC2SC(=O)NC2=O)cc1C (configuration not stated) : call = ? active

Entry Cc1cc(CC2SC(=O)NC2=O)cc(C)c1N(CC1CC1)c1ccc(O)c(C(C)C)c1 (configuration not stated) : call = ? active
